# System: PASMCs
# Experiment Description: Intracellular pH (pHi) in PASMCs (BCECF-AM)
# Type: cell-based, rat
# Applied Conditions: before the compound
Measure Name: basal pHi, Baseline
Keep it simple and answer with nothing but the number.

Recorded basal pHi, Baseline, per entry:
# Molecule, basal pHi, Baseline
records = [
    ("CCOc1ccc2nc(S(N)(=O)=O)sc2c1 [EZ, ethoxzolamide]", 7.28),
    ("CNS(=O)(=O)c1nnc(NC(C)=O)s1", 7.13),
    ("CC(=O)Nc1nnc(S(N)(=O)=O)s1 [AZ, acetazolamide]", 7.26),
]

Ask | # query: basal pHi, Baseline of entry NS(=O)(=O)c1nnc(NS(=O)(=O)c2ccccc2)s1 [BZ, benzolamide]
Reply | 7.31
